Target: cynomolgus monkey PCSK9 (cynomolgus monkey, UniProt A0A7N9D9N8 150-747)
Assay: FRET, competitor EGFA peptide
MEASUREMENT_TYPE: IC50 (nM)

BINDER	IC50, nM
1922G04(R25E) (designed binder, Anti-PCSK9 Adnectin, GSGS-His6 tail; the entry already carries the substitution) MGVSDVPRDLEVVAATPTSLLISWEPPSHAYGYYRITYGETGGNSPVQEFTVPIGKGTATISGLKPGVDYTITVYAVEYPWKGSGYYHRPISINYRTGSGSHHHHHH	58.5
1813E02 (designed binder, Anti-PCSK9 Adnectin, His6-tagged) MGVSDVPRDLEVVAATPTSLLISWSPPANGYGYYRITYGETGGNSPVQEFTVPVGRGTATISGLKPGVDYTITVYAVEYTYKGSGYYHRPISINYRTEIDKPSQHHHHHH	118
1784F03 (designed binder, Anti-PCSK9 Adnectin, His6-tagged) MGVSDVPRDLEVVAATPTSLLISWRPPIHAYGYYRITYGETGGNSPVQEFTVPIVEGTATISGLKPGVDYTITVYAVEYTFKHSGYYHRPISINYRTEIDKPSQHHHHHH	106

Cited source for all entries: patent US20120094909A1
